Origin of values: patent US20140127212A1

- measurementTarget: T1, cynomolgus IgE (recombinant chimaeric D12 variable region and cynomolgus IgE constant region) (cynomolgus monkey (constant region); …)
- T1 construct: The entries may hold a leader peptide; also called cyno IgE; cynomolgus monkey IgE
- T1 sequence (heavy, as listed by the source limits assumed, chain 1 of 2): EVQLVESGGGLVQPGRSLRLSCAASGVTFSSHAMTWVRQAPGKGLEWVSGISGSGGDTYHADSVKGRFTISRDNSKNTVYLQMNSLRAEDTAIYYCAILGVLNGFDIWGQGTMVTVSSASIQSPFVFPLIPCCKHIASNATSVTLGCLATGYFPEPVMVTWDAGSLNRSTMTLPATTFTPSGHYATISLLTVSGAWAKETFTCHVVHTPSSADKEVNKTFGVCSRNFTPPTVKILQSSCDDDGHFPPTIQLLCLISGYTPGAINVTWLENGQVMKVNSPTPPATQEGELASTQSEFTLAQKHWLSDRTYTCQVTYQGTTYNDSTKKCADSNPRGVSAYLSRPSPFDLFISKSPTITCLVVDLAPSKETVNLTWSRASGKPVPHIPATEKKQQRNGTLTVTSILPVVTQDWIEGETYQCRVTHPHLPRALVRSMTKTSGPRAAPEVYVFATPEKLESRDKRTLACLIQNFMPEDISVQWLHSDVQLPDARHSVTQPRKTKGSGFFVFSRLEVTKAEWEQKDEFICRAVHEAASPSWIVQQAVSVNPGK
- T1 sequence (light, as listed by the source limits assumed, chain 2 of 2): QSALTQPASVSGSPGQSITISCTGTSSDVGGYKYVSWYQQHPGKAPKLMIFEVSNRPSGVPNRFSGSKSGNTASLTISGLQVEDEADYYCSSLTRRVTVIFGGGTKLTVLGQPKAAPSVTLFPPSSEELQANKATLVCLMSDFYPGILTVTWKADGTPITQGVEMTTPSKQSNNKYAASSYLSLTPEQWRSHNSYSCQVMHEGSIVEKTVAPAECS
- assayNotes: HTRF competition; scFv titrated vs Eu-cryptate cynomolgus IgE binding to human FcεRI-Fc; geomean
reportedMetric: IC50 (nM)
One number for each entry, in nM.

Worked examples, 2 binders total:
Antibody 28 scFv (scFv, V domains shown, not shown: small tags and cut ends, Purified scFv) VH: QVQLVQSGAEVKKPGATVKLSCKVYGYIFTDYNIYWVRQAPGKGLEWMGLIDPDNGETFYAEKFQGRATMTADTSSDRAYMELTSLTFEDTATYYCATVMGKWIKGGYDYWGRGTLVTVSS VL: QSVLTQPPSVSGAPGQRVTISCTGSSSNIGAGYDVHWYQQLPGTAPKLLIYDNFNRPSGVPDRFSGSKSGTSASLAIIGLQTEDEADYYCQSYDSSSLHSPFGTGTKLTVL    7
Antibody 13 scFv (scFv, V domains shown, Purified scFv) VH: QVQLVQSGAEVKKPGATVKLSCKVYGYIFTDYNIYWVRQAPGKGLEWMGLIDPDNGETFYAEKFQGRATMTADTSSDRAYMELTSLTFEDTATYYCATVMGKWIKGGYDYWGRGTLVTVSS VL: QSVLTQPPSVSGAPGQRVTISCTGSSSNIGAGYDVHWYQQLPGTAPKLLIYDNFNRPSGVPDRFSGSKSGTSASLAIIGLQTEDEADYYCQSYDSNILYSPFGTGTKLTVL    7

Below: the item to evaluate.
Input line: Tell me the measured IC50 of Antibody 21 scFv (scFv, V domains shown, Purified scFv) VH: QVQLVQSGAEVKKPGATVKLSCKVYGYIFTDYNIYWVRQAPGKGLEWMGLIDPDNGETFYAEKFQGRATMTADTSSDRAYMELTSLTFEDTATYYCATVTLKSAKGGYDYWGRGTLVTVSS VL: QSVLTQPPSVSGAPGQRVTISCTGSSSNIGAGYDVHWYQQLPGTAPKLLIYDNFNRPSGVPDRFSGSKSGTSASLAIIGLQTEDEADYYCQSYDSSSQLSPFGTGTKLTVL , please.
Output line: 65
